- Test system: 945468-187-T-J3-PDC spheroids with HUVEC/MSC, viability
- assay.procedure: Anticancer human tumor 945468-187-T-J3-PDC patient-derived rectal carcinoma cell line growth inhibition [PI3K]
- experimental.conditions: second compound 1 µM; first compound 10 µM; stronger effect = lower value
Measured viability, T/C by item
quantity.name: viability, T/C (%)

compound="Cn1ncc(Cl)c1-c1cc(C(=O)NC(CN)Cc2cccc(F)c2)sc1Cl (stereo not drawn) + COc1c(OCCCN2CCOCC2)ccc2c3n(c(=NC(=O)c4cnc(N)nc4)nc12)CCN3" display_unit=% test_value=1.05
compound="CCCS(=O)(=O)Nc1ccc(F)c(C(=O)c2c[nH]c3ncc(-c4ccc(Cl)cc4)cc23)c1F + CC(Nc1ccc2c(c1)OCCn1cc(N3C(=O)OCC3C(F)F)nc1-2)C(N)=O" display_unit=% test_value=13.9
compound="CC(Cn1ccc(-c2ccc(C#N)c(Cl)c2)n1)NC(=O)c1cc(C(C)O)[nH]n1 (stereo not drawn) + CC(Nc1ccc2c(c1)OCCn1cc(N3C(=O)OCC3C(F)F)nc1-2)C(N)=O" display_unit=% test_value=71.1

---

Measured viability, T/C by item
- System: 945468-187-T-J3-PDC spheroids with HUVEC/MSC, viability
- assay.procedure: Anticancer human tumor 945468-187-T-J3-PDC cell line growth inhibition [PI3K];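 note: spheroids exposed to agents for 7 days before viability read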;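 for viability, T/C: 100% = DMSO vehicle control viability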
- experimental.conditions: second compound 0.316 µM; first compound 0.1 µM; stronger effect = lower value
- Description: Combinatorial screen of targeted agents with the PI3K inhibitors inavolisib, alpelisib, duvelisib, and copanlisib in multi-cell type tumor spheroids A high-throughput screen of multi-cell type tumor spheroids was designed to identify active combinations of targeted small molecules and PI3K pathway inhibitors. […] Compounds. […] If the clinical Cmax for an agent had not been determined, the highest concentration tested was 10 microM. […]
quantity.name: viability, T/C (%)

compound="CC1(C)CCC(Nc2ncc(C(F)(F)F)c(-c3c[nH]c4c(P(C)(C)=O)c(C#N)ccc34)n2)CN1 (centres undefined) + CC(Nc1ccc2c(c1)OCCn1cc(N3C(=O)OCC3C(F)F)nc1-2)C(N)=O" display_unit=% test_value=79.2
compound="CC(=O)c1c(C)c2cnc(Nc3ccc(N4CCNCC4)cn3)nc2n(C2CCCC2)c1=O + CC(Nc1ccc2c(c1)OCCn1cc(N3C(=O)OCC3C(F)F)nc1-2)C(N)=O" display_unit=% test_value=81.5
compound="C#Cc1c(F)ccc2cc(O)cc(-c3ncc4c(N5CC6CCC(C5)N6)nc(OCC56CCCN5CC(F)C6)nc4c3F)c12 (centres undefined) + CC(Nc1ccc2c(c1)OCCn1cc(N3C(=O)OCC3C(F)F)nc1-2)C(N)=O" display_unit=% test_value=99.6
compound="CC(C)NCC(C(=O)N1CCN(c2ncnc3c2C(C)CC3O)CC1)c1ccc(Cl)cc1 (centres undefined) + CC(Nc1ccc2c(c1)OCCn1cc(N3C(=O)OCC3C(F)F)nc1-2)C(N)=O" display_unit=% test_value=89.3

---

Measured IC50 by item
- Test system: 945468-187-T-J3-PDC spheroids with HUVEC/MSC, viability
- assay.procedure: Anticancer human tumor 945468-187-T-J3-PDC cell line growth inhibition [PI3K];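 note: spheroids exposed to agents for 7 days before viability read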
- experimental.conditions: curve of first compound; second compound 1 µM
quantity.name: IC50

compound="CC1(C)CCC(CN2CCN(c3ccc(C(=O)NS(=O)(=O)c4ccc(NCC5CCOCC5)c([N+](=O)[O-])c4)c(Oc4cnc5[nH]ccc5c4)c3)CC2)=C(c2ccc(Cl)cc2)C1 + Cc1nc(NC(=O)N2CCCC2C(N)=O)sc1-c1ccnc(C(C)(C)C(F)(F)F)c1" quantity_name=IC50 test_value="6680 nM"
compound="CC(C)n1nc(-c2ccc3oc(N)nc3c2)c2c(N)ncnc21 + COc1c(OCCCN2CCOCC2)ccc2c3n(c(=NC(=O)c4cnc(N)nc4)nc12)CCN3" quantity_name=IC50 test_value="< 0.316 nM"
compound="Cn1ncnc1[C@H]1c2n[nH]c(=O)c3cc(F)cc(c23)N[C@@H]1c1ccc(F)cc1 + Cc1nc(NC(=O)N2CCCC2C(N)=O)sc1-c1ccnc(C(C)(C)C(F)(F)F)c1" quantity_name=IC50 test_value="> 100 nM"
compound="CC(=O)c1c(C)c2cnc(Nc3ccc(N4CCNCC4)cn3)nc2n(C2CCCC2)c1=O + CC(Nc1ncnc2nc[nH]c12)c1cc2cccc(Cl)c2c(=O)n1-c1ccccc1" quantity_name=IC50 test_value="> 100 nM"
compound="CC(C)n1nc(-c2ccc3oc(N)nc3c2)c2c(N)ncnc21 + Cc1nc(NC(=O)N2CCCC2C(N)=O)sc1-c1ccnc(C(C)(C)C(F)(F)F)c1" quantity_name=IC50 test_value="77 nM"

---

- System: 945468-187-T-J3-PDC spheroids with HUVEC/MSC, viability
- assay.procedure: Anticancer human tumor 945468-187-T-J3-PDC cell line growth inhibition [PI3K];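 note: spheroids exposed to agents for 7 days before viability read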;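 for viability, T/C: 100% = DMSO vehicle control viability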
- experimental.conditions: second compound 3.16 µM; first compound 3.16 µM; stronger effect = lower value
quantity.name: viability, T/C (%)

molecule="C#Cc1c(F)ccc2cc(O)cc(-c3ncc4c(N5CC6CCC(C5)N6)nc(OCC56CCCN5CC(F)C6)nc4c3F)c12 (stereo not drawn) + CC(Nc1ncnc2nc[nH]c12)c1cc2cccc(Cl)c2c(=O)n1-c1ccccc1" assay_system="945468-187-T-J3-PDC spheroids with HUVEC/MSC, viability" display_unit=% test_value=110
molecule="C=CC(=O)N1CCN(c2nc(=O)n(-c3c(C)ccnc3C(C)C)c3nc(-c4c(O)cccc4F)c(F)cc23)C(C)C1 (stereo not drawn) + CC(Nc1ncnc2nc[nH]c12)c1cc2cccc(Cl)c2c(=O)n1-c1ccccc1" assay_system="945468-187-T-J3-PDC spheroids with HUVEC/MSC, viability" display_unit=% test_value=97.2
molecule="CC1(C)CCC(CN2CCN(c3ccc(C(=O)NS(=O)(=O)c4ccc(NCC5CCOCC5)c([N+](=O)[O-])c4)c(Oc4cnc5[nH]ccc5c4)c3)CC2)=C(c2ccc(Cl)cc2)C1 + CC(Nc1ncnc2nc[nH]c12)c1cc2cccc(Cl)c2c(=O)n1-c1ccccc1" assay_system="945468-187-T-J3-PDC spheroids with HUVEC/MSC, viability" display_unit=% test_value=115

---

Measured viability, T/C by item
- Test system: 945468-187-T-J3-PDC spheroids with HUVEC/MSC, viability
- assay.procedure: Anticancer human tumor 945468-187-T-J3-PDC cell line growth inhibition [PI3K];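 note: spheroids exposed to agents for 7 days before viability read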;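 for viability, T/C: 100% = DMSO vehicle control viability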
- experimental.conditions: second compound 1 µM; first compound 10 µM; stronger effect = lower value
quantity.name: viability, T/C (%)

molecule="C#Cc1c(F)ccc2cc(O)cc(-c3ncc4c(N5CC6CCC(C5)N6)nc(OCC56CCCN5CC(F)C6)nc4c3F)c12 (stereo not given) + CC(Nc1ncnc2nc[nH]c12)c1cc2cccc(Cl)c2c(=O)n1-c1ccccc1" assay_system="945468-187-T-J3-PDC spheroids with HUVEC/MSC, viability" test_value=97.9
molecule="C#Cc1c(F)ccc2cc(O)cc(-c3ncc4c(N5CC6CCC(C5)N6)nc(OCC56CCCN5CC(F)C6)nc4c3F)c12 (stereo not given) + CC(Nc1ccc2c(c1)OCCn1cc(N3C(=O)OCC3C(F)F)nc1-2)C(N)=O" assay_system="945468-187-T-J3-PDC spheroids with HUVEC/MSC, viability" test_value=29
molecule="CC(C)NCC(C(=O)N1CCN(c2ncnc3c2C(C)CC3O)CC1)c1ccc(Cl)cc1 (stereo not given) + Cc1nc(NC(=O)N2CCCC2C(N)=O)sc1-c1ccnc(C(C)(C)C(F)(F)F)c1" assay_system="945468-187-T-J3-PDC spheroids with HUVEC/MSC, viability" test_value=32.6
molecule="C[C@@H](NC(=O)c1ncnc(N)c1Cl)c1ncc(C(=O)Nc2cc(C(F)(F)F)c(Cl)cn2)s1 + COc1c(OCCCN2CCOCC2)ccc2c3n(c(=NC(=O)c4cnc(N)nc4)nc12)CCN3" assay_system="945468-187-T-J3-PDC spheroids with HUVEC/MSC, viability" test_value=19.9
molecule="CNC(=O)c1ccc(N2C(=S)N(c3ccc(C#N)c(C(F)(F)F)c3)C(=O)C2(C)C)cc1F + CC(Nc1ncnc2nc[nH]c12)c1cc2cccc(Cl)c2c(=O)n1-c1ccccc1" assay_system="945468-187-T-J3-PDC spheroids with HUVEC/MSC, viability" test_value=94.8

---

- Test system: 945468-187-T-J3-PDC spheroids with HUVEC/MSC, viability
- assay.procedure: Anticancer human tumor 945468-187-T-J3-PDC cell line growth inhibition [PI3K];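 note: spheroids exposed to agents for 7 days before viability read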;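 for viability, T/C: 100% = DMSO vehicle control viability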
- experimental.conditions: second compound 1 µM; first compound 1 µM; stronger effect = lower value
- From the text: Combinatorial screen of targeted agents with the PI3K inhibitors inavolisib, alpelisib, duvelisib, and copanlisib in multi-cell type tumor spheroids A high-throughput screen of multi-cell type tumor spheroids was designed to identify active combinations of targeted small molecules and PI3K pathway inhibitors. […] Compounds. […] If the clinical Cmax for an agent had not been determined, the highest concentration tested was 10 microM. […]
Measured viability, T/C by item
quantity.name: viability, T/C (%)

compound="CCN1CCN(Cc2ccc(Nc3ncc(F)c(-c4cc(F)c5nc(C)n(C(C)C)c5c4)n3)nc2)CC1 + CC(Nc1ncnc2nc[nH]c12)c1cc2cccc(Cl)c2c(=O)n1-c1ccccc1" assay_system="945468-187-T-J3-PDC spheroids with HUVEC/MSC, viability" test_value=69.2
compound="C#Cc1c(F)ccc2cc(O)cc(-c3ncc4c(N5CC6CCC(C5)N6)nc(OCC56CCCN5CC(F)C6)nc4c3F)c12 (centres undefined) + CC(Nc1ccc2c(c1)OCCn1cc(N3C(=O)OCC3C(F)F)nc1-2)C(N)=O" assay_system="945468-187-T-J3-PDC spheroids with HUVEC/MSC, viability" test_value=70.2
compound="Cn1nccc1Nc1nccc(-c2ccn(C(CO)c3ccc(Cl)c(F)c3)c(=O)c2)n1 (centres undefined) + CC(Nc1ccc2c(c1)OCCn1cc(N3C(=O)OCC3C(F)F)nc1-2)C(N)=O" assay_system="945468-187-T-J3-PDC spheroids with HUVEC/MSC, viability" test_value=72
compound="CCCS(=O)(=O)Nc1ccc(F)c(C(=O)c2c[nH]c3ncc(-c4ccc(Cl)cc4)cc23)c1F + CC(Nc1ccc2c(c1)OCCn1cc(N3C(=O)OCC3C(F)F)nc1-2)C(N)=O" assay_system="945468-187-T-J3-PDC spheroids with HUVEC/MSC, viability" test_value=69.4
